# System: DOHH-2
# PROTOCOL DETAILS: Antiproliferative activity against human DOHH-2 cells assessed as cell growth inhibition measured after 72 hrs by MTT assay
# Type: functional, cell-based
# APPLIED CONDITIONS: DOHH-2, 72 h
pIC50: −log10 of the molar value.
Would you mind labelling by pIC50? At or over 6 is TRUE, under is FALSE.

Cc1cc(N2[C@@H](C)CC[C@H]2c2nc3cccc(Cl)c3c(=O)n2-c2ccccc2)nc(N)n1 = FALSE
CCOc1cncc(-c2cccc3nc([C@@H]4CC[C@H](C)N4c4nc(N)nc(N)c4C#N)n(-c4ccccc4)c(=O)c23)c1 = TRUE

Below: the item to evaluate.
Ask: Dear colleague, could you confirm whether `C[C@H]1CC[C@@H](c2nc3cccc(Cl)c3c(=O)n2-c2ccccc2)N1c1nc(N)nc2[nH]ccc12` has pIC50 at or above 6?
Result: FALSE

====

pIC50 overview
# Tested on: DOHH-2
# PROTOCOL DETAILS: Antiproliferative activity against human DOHH-2 cells assessed as cell growth inhibition measured after 72 hrs by MTT assay
# Format: functional, cell-based
# APPLIED CONDITIONS: DOHH-2, 72 h
API: returns pIC50 as number; meaning -log10 of concentration in mol/L.

Known pIC50 results, listed for orientation:
COc1ccc(C#Cc2cccc3nc([C@@H]4CC[C@H](C)N4c4nc(N)nc(N)c4C#N)n(-c4ccccc4)c(=O)c23)cc1 = 5.40
N#Cc1c(N)nc(N)nc1N1[C@H](c2nc3cccc(Cl)c3c(=O)n2-c2cccc(F)c2)C[C@@H]2CCCC[C@@H]21 = 5.55

Turning now to a further record.
Query `C[C@H]1CC[C@@H](c2nc3cccc(Cl)c3c(=O)n2-c2ccccc2)N1c1ccnc(N)n1` yields pIC50 of 5.40

====

inhibition overview
# TESTED TARGET: Phosphatidylinositol 4,5-bisphosphate 3-kinase catalytic subunit gamma isoform (Homo sapiens, UniProt P48736)
# Sequence (P48736 whole entry, looked up, canonical isoform): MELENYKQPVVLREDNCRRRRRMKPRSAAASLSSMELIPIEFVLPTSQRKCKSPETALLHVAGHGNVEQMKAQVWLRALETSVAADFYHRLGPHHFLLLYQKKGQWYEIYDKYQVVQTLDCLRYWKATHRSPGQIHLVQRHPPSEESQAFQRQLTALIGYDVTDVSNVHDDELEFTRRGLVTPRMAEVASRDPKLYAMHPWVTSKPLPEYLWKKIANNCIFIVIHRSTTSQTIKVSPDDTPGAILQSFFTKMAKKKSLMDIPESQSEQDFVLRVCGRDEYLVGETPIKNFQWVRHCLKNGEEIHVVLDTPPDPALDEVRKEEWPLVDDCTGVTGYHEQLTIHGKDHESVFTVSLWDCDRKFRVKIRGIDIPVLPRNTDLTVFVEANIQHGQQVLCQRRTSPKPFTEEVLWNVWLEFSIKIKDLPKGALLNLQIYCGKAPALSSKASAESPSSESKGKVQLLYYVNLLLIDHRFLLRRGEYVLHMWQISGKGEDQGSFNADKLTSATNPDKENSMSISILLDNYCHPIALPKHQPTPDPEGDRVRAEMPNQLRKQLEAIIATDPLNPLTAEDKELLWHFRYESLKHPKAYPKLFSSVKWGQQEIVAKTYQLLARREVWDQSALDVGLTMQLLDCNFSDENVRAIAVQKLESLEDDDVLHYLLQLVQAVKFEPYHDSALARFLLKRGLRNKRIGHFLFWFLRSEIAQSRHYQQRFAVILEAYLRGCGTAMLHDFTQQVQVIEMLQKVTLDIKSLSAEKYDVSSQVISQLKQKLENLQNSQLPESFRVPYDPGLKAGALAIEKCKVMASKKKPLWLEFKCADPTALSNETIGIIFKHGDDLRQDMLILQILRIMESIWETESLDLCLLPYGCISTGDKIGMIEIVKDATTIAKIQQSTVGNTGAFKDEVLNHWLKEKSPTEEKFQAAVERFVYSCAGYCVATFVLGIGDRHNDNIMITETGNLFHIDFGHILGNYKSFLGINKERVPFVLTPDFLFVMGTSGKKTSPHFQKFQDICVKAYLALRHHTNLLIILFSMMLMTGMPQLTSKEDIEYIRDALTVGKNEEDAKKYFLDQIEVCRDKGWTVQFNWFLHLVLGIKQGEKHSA
# PROTOCOL DETAILS: Inhibition of N-terminal His6-tagged recombinant full length human PI3Kgamma expressed in baculovirus infected Sf21 insect cells at 0.1 uM by HTRF assay relative to control
Number in %, nothing else.

Known inhibition results, listed for orientation:
COc1cncc(-c2cccc3nc([C@@H]4CC[C@H](C)N4c4nc(N)nc(N)c4C#N)n(-c4cccnc4)c(=O)c23)c1 = 23
C[C@H]1CC[C@@H](c2nc3cccc(C#Cc4ccccn4)c3c(=O)n2-c2ccccc2)N1c1nc(N)nc(N)c1C#N = 29
C[C@H]1CC[C@@H](c2nc3cccc(C#Cc4ccsc4)c3c(=O)n2-c2ccccc2)N1c1nc(N)nc(N)c1C#N = 49
C[C@H]1CC[C@@H](c2nc3cccc(-c4cccnc4)c3c(=O)n2-c2ccccc2)N1c1nc(N)nc(N)c1C#N = 25

Turning now to a further record.
Query `Cc1cccc2nc([C@@H]3CC[C@H](C)N3c3nc(N)nc(N)c3C#N)n(-c3cccnc3)c(=O)c12` yields inhibition of 21

====

# System: DOHH-2
# PROTOCOL DETAILS: Antiproliferative activity against human DOHH-2 cells assessed as cell growth inhibition measured after 72 hrs by MTT assay
# Type: functional, cell-based
# APPLIED CONDITIONS: DOHH-2, 72 h
For each record, check the reported IC50: if it is below 700 nM write yes, else write no.

COc1cncc(-c2cccc3nc([C@@H]4CC[C@H](C)N4c4nc(N)nc(N)c4C#N)n(-c4cccnc4)c(=O)c23)c1 = no
C[C@H]1CC[C@@H](c2nc3cccc(Cl)c3c(=O)n2-c2ccccc2)N1c1nc(N)nc(N)c1C#N = no

Ask: Hello, is IC50 of the following compound strictly smaller than 700 nM? `C[C@H]1CC[C@@H](c2nc3cccc(-c4cnn(C(F)F)c4)c3c(=O)n2-c2ccccc2)N1c1nc(N)nc(N)c1C#N`
Result: yes

====

# TESTED TARGET: Phosphatidylinositol 4,5-bisphosphate 3-kinase catalytic subunit gamma isoform (Homo sapiens, UniProt P48736)
# PROTOCOL DETAILS: Inhibition of N-terminal His6-tagged recombinant full length human PI3Kgamma expressed in baculovirus infected Sf21 insect cells at 0.1 uM by HTRF assay relative to control
OUTCOME MEASURE: inhibition (%)
Number in %, nothing else.

Query `C[C@H]1CC[C@@H](c2nc3cccc(-c4cnn(C(F)F)c4)c3c(=O)n2-c2ccccc2)N1c1nc(N)nc(N)c1C#N` yields inhibition of 20

====

# TESTED TARGET: Phosphatidylinositol 4,5-bisphosphate 3-kinase catalytic subunit gamma isoform (Homo sapiens, UniProt P48736)
# PROTOCOL DETAILS: Inhibition of N-terminal His6-tagged recombinant full length human PI3Kgamma expressed in baculovirus infected Sf21 insect cells at 0.1 uM by HTRF assay relative to control
inhibition overview
Number in %, nothing else.

C[C@H]1CC[C@@H](c2nc3cccc(C#Cc4cccnc4)c3c(=O)n2-c2ccccc2)N1c1nc(N)nc(N)c1C#N = 31
COc1ccc(-c2cccc3nc([C@@H]4CC[C@H](C)N4c4nc(N)nc(N)c4C#N)n(-c4ccccc4)c(=O)c23)cn1 = 29
C[C@H]1CC[C@@H](c2nc3cccc(-c4cnn(C5CC5)c4)c3c(=O)n2-c2cccc(F)c2)N1c1nc(N)nc(N)c1C#N = 29
C[C@H]1CC[C@@H](c2nc3cccc(Cl)c3c(=O)n2-c2ccccc2)N1c1nc(N)nc(N)c1C#N = 24
C[C@H]1CC[C@@H](c2nc3cccc(C#Cc4ccccc4)c3c(=O)n2-c2ccccc2)N1c1nc(N)nc(N)c1C#N = 40
COc1cccc(C#Cc2cccc3nc([C@@H]4CC[C@H](C)N4c4nc(N)nc(N)c4C#N)n(-c4ccccc4)c(=O)c23)c1 = 35

Query `C[C@H]1CC[C@@H](c2nc3cccc(F)c3c(=O)n2-c2cccnc2)N1c1nc(N)nc(N)c1C#N` yields inhibition of 67

Query `C[C@H]1CC[C@@H](c2nc3cccc(Cl)c3c(=O)n2-c2cccc(F)c2)N1c1nc(N)nc2[nH]cnc12` yields inhibition of 1

Query `C[C@H]1CC[C@@H](c2nc3cccc(Cl)c3c(=O)n2-c2ccccc2)N1c1nc(N)nc2[nH]ccc12` yields inhibition of 88

Query `C[C@H]1CC[C@@H](c2nc3cc(F)ccc3c(=O)n2-c2cccnc2)N1c1nc(N)nc(N)c1C#N` yields inhibition of 70
